Tested on: SNB-75 CNS
Assay: NCI tumour cell line growth inhibition, 48 h
quantityName: TGI

Solved cases below.
# molecule, result
data = [
    ("N#Cc1c(N2CCOCC2)ncn(-c2ccccc2)c1=O", "> 100 µM"),
    ("CCCCNc1nc(SC)nc2nc[nH]c12", "> 100 µM"),
    ("COC(=O)[C@]1(c2cc3ccccc3n2S(=O)(=O)c2ccccc2)CC2CCC1NC2 (stereo partly specified)", "30.5 µM"),
    ("NC(N)=NC(N)=NCCc1ccccc1", "> 100 µM"),
    ("CC(=O)OC1CC(OC2C(O)CC(OC3C(O)CC(OC4CCC5(C)C(CCC6C5CC(O)C5(C)C(C7=CC(=O)OC7)CCC65O)C4)OC3C)OC2C)OC(C)C1O (stereo unspecified) (tested in a mixture with another compound)", "0.191 µM"),
]

// batch mode: one TGI value per listed entry
1. O=C1OC(c2ccc([N+](=O)[O-])cc2)=N/C1=C\c1ccc(O)cc1
2. C=C1C(=O)C=C2C=C3C(=O)C(C)(C)C[C@]3(O)C12C (stereo partly specified)

Solution:
1. > 100 µM
2. 31.4 µM

Quick request: TGI for each listed item, please.
1. O=C(O)/C(O)=C1/C=C(c2ccccc2)c2ccccc21
2. CC1C(c2ccccc2O)c2cc3c(cc2OC1N1CCCC1)OCO3 (stereo unspecified)

Solution:
1. 61.7 µM
2. 88 µM

State the recorded TGI for every item in the following list.
1. C=CCSc1n[nH]c(-c2cccs2)n1
2. CC(=O)CN=C(C)NNc1ccc([N+](=O)[O-])cc1[N+](=O)[O-]
3. Oc1cccc(C2SCc3nc4ccccc4n32)c1 (stereo unspecified)
4. O=S(=O)(Nc1ccccc1S(=O)(=O)c1ccccc1)c1ccccc1

Solution:
1. > 100 µM
2. > 100 µM
3. > 100 µM
4. > 100 µM

Quick one: give me TGI for each item below, same order please.
1. Nc1nc(=O)n(C2OC(CO)C(O)C2O)cc1F (stereo unspecified)
2. CCN(C)S(=O)(=O)Nc1cccc(Nc2ncnc3cc(NC(=O)CCl)ccc23)c1Cl
3. O=C(O)/C(=C\c1ccccc1)Cc1ccccc1
4. CC(C)OCN1COCN=C1NC#N
5. O=C(NCCNCCO)c1ccc2oc3cc4ccccc4c(=O)n3c2c1
6. O=C1/C(=C\c2ccccc2)c2ccccc2N1Cc1ccccc1
7. CC1CC(=O)C(C(O)CC2CC(=O)N(c3ccccc3)C(=O)C2)C(C)C1 (stereo unspecified)
8. O=C(C#Cc1c[nH]c(=O)[nH]c1=O)c1ccccc1

Solution:
> 56.4 µM
7.67 µM
> 100 µM
> 100 µM
47.5 µM
22.8 µM
> 100 µM
33.1 µM

* * *

Test system: NCI-H23 lung
Experiment: NCI tumour cell line growth inhibition, 48 h
quantityName: TGI

See these solved cases before continuing.
# molecule, testedTarget, quantityName, result
rows = [
    ("COc1ccc(/C=N/NC(=O)O)cc1", "NCI-H23 lung", "TGI", "> 100 µM"),
    ("COC(=O)C(C(=O)C(=O)Nc1ccccc1OC)c1csc(-n2nc(-c3ccccc3)cc2-c2ccccc2)n1 (stereo not given)", "NCI-H23 lung", "TGI", "> 100 µM"),
    ("CC(O[Si](C)(C)C(C)(C)C)[C@H](NC(=O)OCC(Cl)(Cl)Cl)C(=O)O (stereo not given in full)", "NCI-H23 lung", "TGI", "> 100 µM"),
    ("CC1C(c2ccccc2O)c2cc3c(cc2OC1N1CCCC1)OCO3 (stereo not given)", "NCI-H23 lung", "TGI", "> 100 µM"),
]

Provide reported TGI for each item, in the same order as listed.
1. COc1cc(CNC(=O)CCCCCCCC/C=C/Br)ccc1O
2. CC(C)CCNC(=O)c1ccc(CNC(=O)/C=C/c2ccc(-c3ccccc3[N+](=O)[O-])o2)cc1
3. O=C1c2c(Br)sc(Br)c2[C@H]2NC(=S)O[C@@H]12
4. OC[C@H]1CC(c2nn[nH]n2)[C@H](O)[C@@H]1O (stereo not given in full)
5. Cc1sc(N=Nc2c(O)[nH]c3ccccc23)nc1-c1ccccc1
6. COc1cc2c(cc1OC)-c1cc3ccccc3c(=O)n1CCC2
7. COc1cc2cc(C(=O)O)[nH]c2cc1OCc1ccccc1
8. CC[n+]1[b-](C(C)(C)C)n(/N=C(\C)C(C)(C)C)[b-](C(C)(C)C)[n+]1CC

Solution:
["> 10 µM", "> 100 µM", "29.9 µM", "> 100 µM", "34.6 µM", "65.1 µM", "> 100 µM", "> 100 µM"]

Each molecule below has a reported value. Please supply its TGI.
1. C=CCSc1nn(CC=C)cc2ncnc1-2
2. O=[N+]([O-])C(=C1Nc2ccccc2N1)C(Cl)=C(Cl)Cl

Solution:
["> 100 µM", "> 100 µM"]

Batch request: TGI for each of the following molecules.
1. CC(=O)O[C@H]1CCC2[C@@H]3CCC4C(=O)c5oncc5C[C@]4(C)C3CC[C@@]21C (stereo not given in full)
2. O=C(O)[C@@H]1C[C@@H](O)CN1
3. COC(=O)C(Cc1ccccc1)NS(=O)(=O)c1ccc(-c2c3nc(c(-c4ccc(S(=O)(=O)NC(Cc5ccccc5)C(=O)OC)cc4)c4ccc([nH]4)c(-c4ccc(S(=O)(=O)NC(Cc5ccccc5)C(=O)OC)cc4)c4nc(c(-c5ccc(S(=O)(=O)NC(Cc6ccccc6)C(=O)OC)cc5)c5ccc2[nH]5)C=C4)C=C3)cc1 (stereo not given)
4. O=[N+]([O-])c1cc(Cl)ccc1S(=O)(=O)c1ccccc1
5. O=C(N/N=C/c1cc2ccccc2c2ccccc12)c1cc(O)c(O)c(O)c1
6. CCCCCCCCCCCCCCCCCCNc1ccn(C2OC(CO)C(OP(=O)(O)OCC3CCC(n4ccc(N)nc4=O)O3)C2O)c(=O)n1 (stereo not given)

Solution:
1. > 100 µM
2. > 100 µM
3. > 100 µM
4. > 100 µM
5. 14.3 µM
6. > 100 µM

* * *

Would you kindly list TGI for each of these compounds?
Test system: NCI/ADR-RES ovarian
Assay: NCI tumour cell line growth inhibition, 48 h

Check out these entries, answers already filled in.
# compound, TGI
measured = [
    ("CCOC(=O)c1c(C)c2c(n1C)CSc1cc(S(=O)(=O)c3ccccc3)c(=O)[nH]c1-2", "> 100 µM"),
    ("COC(=O)c1ccccc1CC1Cc2cc3c(cc2C1)CCC3", "> 100 µM"),
    ("C=C1CC(OC)(C(O)C(=O)N[C@H]2OCO[C@H]3C2O[C@H](C[C@@H](CO)OC)C(C)(C)C3OC)O[C@H](C)[C@@H]1C (some centres not stated)", "0.016 µM"),
    ("Cc1cc(NC(=O)CCc2ccc(N3C(N)=NC(N)=NC3(C)C)cc2)ccc1S(=O)(=O)F", "> 100 µM"),
    ("N#Cc1ccc(-n2cnc(NC(=O)[C@H]3CCN(C#N)C3)c2)cc1", "> 86.8 µM"),
    ("COC(=O)C(Cc1ccccc1)NS(=O)(=O)c1ccc(-c2c3nc(c(-c4ccc(S(=O)(=O)NC(Cc5ccccc5)C(=O)OC)cc4)c4ccc([nH]4)c(-c4ccc(S(=O)(=O)NC(Cc5ccccc5)C(=O)OC)cc4)c4nc(c(-c5ccc(S(=O)(=O)NC(Cc6ccccc6)C(=O)OC)cc5)c5ccc2[nH]5)C=C4)C=C3)cc1 (configuration not stated)", "> 100 µM"),
    ("Cn1ncc2c(NCCc3ccccc3)nc(Cl)nc21", "59.9 µM"),
    ("C[C@]12CC[C@H]3[C@@H](C[C@@H]4SC(Nc5cccc(F)c5)=N[C@@]45CC(=O)CC[C@]35C)[C@@H]1CCC2=O", "17.2 µM"),
    ("COc1cc(CNC(=O)CCCCCCCC/C=C/Br)ccc1O", "> 10 µM"),
    ("Nc1nc(Cl)c2ncn(Cc3ccccc3CCl)c2n1", "34.6 µM"),
]

// each compound listed below needs its TGI
1. CC(=O)CN=C(C)NNc1ccc([N+](=O)[O-])cc1[N+](=O)[O-]
2. CCC(=S)N(C)O
3. CCNC1CC(C(C)(C)NCC)CC=C1C (configuration not stated)
4. COc1cccc(/C=N/n2c(-c3ccccc3)n[nH]c2=O)c1
5. O=C1c2c(Br)sc(Br)c2[C@H]2NC(=S)O[C@@H]12
6. Nc1ccc(-c2ccc(-c3nc4ccccc4[nH]3)cc2)cc1
7. O=C1c2cccc3c(N4CCN(c5ccc6c7c(cccc57)C(=O)N(CCN5CCNCC5)C6=O)CC4)ccc(c23)C(=O)N1CCN1CCNCC1

Solution:
["> 100 µM", "> 100 µM", "> 100 µM", "> 100 µM", "45.8 µM", "> 76.3 µM", "32.6 µM"]
